# Measurement Protocol: Haemolysis assay
# Format: cell-based
# Conditions: rabbit, rabbit red blood cell suspension
Endpoint: hemolysis at 1 h, 32 µg/mL (%)

>>> recorded_number("C[C@@H]1[C@H](O)[C@@H](C)/C=C/C=C/C=C/C=C/C=C/C=C/C=C/[C@H](O[C@@H]2O[C@H](C)[C@@H](O)[C@H](N)[C@@H]2O)C[C@@H]2O[C@](O)(C[C@@H](O)C[C@@H](O)[C@H](O)CC[C@@H](O)C[C@@H](O)CC(=O)O[C@H]1C)C[C@H](O)[C@H]2C(=O)O")
53.5
